Please provide measured residual activity for the entries that follow.
assayed-system: Serine/threonine-protein kinase Nek11 (Homo sapiens)
condition-label: at 10 µM
Kindly provide the numeric value in % only, without the unit symbol.

# input compound: CC(C)(C)n1nc(Cc2cccc3ccccc23)c2c(N)ncnc21 ; wanted: its residual activity
82

Now give it for O=C(O)/C=C/c1cc(Br)c(Br)c(Br)c1Br too.
54

Now give it for CSc1nc(-c2ccc(F)cc2)c(-c2ccnc(NC(C)c3ccccc3)c2)[nH]1 (centres undefined) too.
54

Now give it for CCN(CC)CCNC(=O)c1c(C)[nH]c(/C=C2\C(=O)Nc3ccc(Cl)cc32)c1C too.
31

* * *

assayed-system: Mitogen-activated protein kinase 8 (Homo sapiens) (UniProt P45983)
Sequence (P45983 whole entry): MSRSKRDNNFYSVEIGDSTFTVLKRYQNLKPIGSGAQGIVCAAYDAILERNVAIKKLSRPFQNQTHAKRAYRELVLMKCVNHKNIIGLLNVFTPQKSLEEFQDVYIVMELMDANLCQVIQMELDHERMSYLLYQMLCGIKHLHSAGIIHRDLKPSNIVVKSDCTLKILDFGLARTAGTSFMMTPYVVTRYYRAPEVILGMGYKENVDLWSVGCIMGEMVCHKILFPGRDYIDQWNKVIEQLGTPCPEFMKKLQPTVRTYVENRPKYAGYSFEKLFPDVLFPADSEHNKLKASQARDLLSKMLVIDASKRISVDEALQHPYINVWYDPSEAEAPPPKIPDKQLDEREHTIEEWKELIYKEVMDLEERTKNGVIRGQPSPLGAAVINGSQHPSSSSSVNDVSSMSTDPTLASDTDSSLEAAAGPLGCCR
condition-label: at 1 µM
Description: Millipore: Percentage of residual kinase activity of MAPK8 at 1uM relative to control. Control inhibitor: Jnk Inhibitor II at 100.0uM. Buffer: 50 mM Tris pH 7.5, 0.1 mM EGTA, 0.1% ? -mercaptoethanol
recorded-metric: residual activity (%)
Kindly provide the numeric value in % only, without the unit symbol.

# input molecule: NC(=O)Nc1sc(-c2ccc(F)cc2)cc1C(N)=O ; wanted: its residual activity
94

Now give it for CSc1nc(-c2ccc(F)cc2)c(-c2ccnc(NC(C)c3ccccc3)c2)[nH]1 (stereo not given) too.
90

Now give it for O=c1cc(N2CCOCC2)oc2c1ccc1ccccc12 too.
103

Now give it for NC(=O)c1ccc(-c2nc(-c3ccc4c(c3)OCCO4)c(-c3ccccn3)[nH]2)cc1 too.
117

Now give it for CC(C)(C)c1nc2c3ccc(F)cc3c3c(=O)[nH]ccc3c2[nH]1 too.
32

Now give it for O=C(Nc1ccc(Cl)cc1)c1ccccc1NCc1ccncc1 too.
120

Now give it for O=C1C(Cl)=C(N2C(=O)CCC2=O)C(=O)c2ccccc21 too.
96

Now give it for Cn1sc(=O)n(Cc2ccccc2)c1=O too.
89

Now give it for COc1cc2nccc(Oc3ccc(NC(=S)NC(=O)c4ccccc4C)cc3)c2cc1OC too.
95

Now give it for O=C1Nc2ccc(Cl)cc2/C1=C/c1cc(Cl)c(O)c(Cl)c1 too.
95

Now give it for O=C(c1ccccc1)c1ccc(N2CCOCC2)cc1O too.
116

Now give it for O=C1NC(=O)C(c2cn(CCCn3ccnc3)c3ccccc23)=C1Nc1ccccc1 too.
109

Now give it for COc1ccc2c(c1)c(C1=C(c3c[nH]c4ccccc34)C(=O)NC1=O)cn2CCCN(C)C too.
104

Now give it for O=C(O)/C=C/c1cc(Br)c(Br)c(Br)c1Br too.
108

Now give it for CCCCc1c(-c2ccc(OC)cc2)[nH]c2nccnc12 too.
105

Now give it for Nc1ncnc2c1c(-c1ccc(Oc3ccccc3)cc1)cn2C1CCCC1 too.
100

Now give it for CC(C)(C)n1nc(Cc2cccc3ccccc23)c2c(N)ncnc21 too.
108

Now give it for O=C1NC(=O)c2c1c1c3ccccc3[nH]c1n1cncc21 too.
89

Now give it for COc1cc2ncnc(Nc3cccc(Cl)c3)c2cc1OC too.
112

Now give it for N#C/C(=C1/Nc2ccccc2S1)c1ccnc(NCCc2cccnc2)n1 too.
67

* * *

assayed-system: Tyrosine-protein kinase Lck (Homo sapiens) (UniProt P06239)
Sequence (P06239 2-509 limits assumed): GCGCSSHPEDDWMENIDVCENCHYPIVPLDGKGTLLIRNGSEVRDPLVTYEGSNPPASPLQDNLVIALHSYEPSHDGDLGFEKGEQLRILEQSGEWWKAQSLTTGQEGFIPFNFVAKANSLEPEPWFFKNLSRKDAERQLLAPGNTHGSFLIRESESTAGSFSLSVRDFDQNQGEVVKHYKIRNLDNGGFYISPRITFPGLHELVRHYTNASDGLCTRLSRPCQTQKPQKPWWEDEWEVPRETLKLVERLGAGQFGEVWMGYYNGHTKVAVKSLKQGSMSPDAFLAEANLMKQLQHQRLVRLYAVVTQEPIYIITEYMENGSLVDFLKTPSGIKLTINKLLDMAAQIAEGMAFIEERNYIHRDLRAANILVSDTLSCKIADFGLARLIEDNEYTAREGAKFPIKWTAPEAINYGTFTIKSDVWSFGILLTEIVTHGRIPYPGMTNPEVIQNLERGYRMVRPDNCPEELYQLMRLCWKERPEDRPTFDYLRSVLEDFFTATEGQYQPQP
condition-label: at 1 µM
Please provide measured residual activity for the entries that follow.
Kindly provide the numeric value in % only, without the unit symbol.

Form field: residual activity recorded for COc1ccc(-c2cnc3c(-c4ccsc4)cnn3c2)cc1 with Tyrosine-protein kinase Lck (Homo sapiens) (UniProt P06239) (enter value)
93

Now give it for NCCNc1ncc(C(N)=O)c(Nc2cccc(C(F)(F)F)c2)n1 too.
82

Now give it for c1ccc(-c2cnc(Nc3ccc(OCCN4CCCC4)cc3)s2)cc1 too.
36

Now give it for Nc1ncnc2c1c(-c1ccc(Oc3ccccc3)cc1)cn2C1CCCC1 too.
-3

Now give it for O=C(c1cc2cc(O)ccc2[nH]1)c1cc2cc(O)ccc2[nH]1 too.
22

Now give it for CCCCc1c(-c2ccc(O)cc2)[nH]c2nccnc12 too.
63

Now give it for O=C(NC(NC(=S)Nc1ccc(F)c([N+](=O)[O-])c1)C(Cl)(Cl)Cl)C(c1ccccc1)c1ccccc1 (stereo unspecified) too.
86

Now give it for O=c1cc(N2CCNCC2)oc2c(-c3ccccc3)cccc12 too.
92

Now give it for O=C1Cc2c([nH]c3ccc([N+](=O)[O-])cc23)-c2ccccc2N1 too.
76

Now give it for O=C1Nc2ccc(Cl)cc2/C1=C/c1cc(Cl)c(O)c(Cl)c1 too.
74

Now give it for Nc1nc(Nc2ccc(S(N)(=O)=O)cc2)nn1C(=O)c1c(F)cccc1F too.
66

* * *

assayed-system: Ephrin type-B receptor 1 (Homo sapiens) (UniProt P54762)
Sequence (P54762 whole entry): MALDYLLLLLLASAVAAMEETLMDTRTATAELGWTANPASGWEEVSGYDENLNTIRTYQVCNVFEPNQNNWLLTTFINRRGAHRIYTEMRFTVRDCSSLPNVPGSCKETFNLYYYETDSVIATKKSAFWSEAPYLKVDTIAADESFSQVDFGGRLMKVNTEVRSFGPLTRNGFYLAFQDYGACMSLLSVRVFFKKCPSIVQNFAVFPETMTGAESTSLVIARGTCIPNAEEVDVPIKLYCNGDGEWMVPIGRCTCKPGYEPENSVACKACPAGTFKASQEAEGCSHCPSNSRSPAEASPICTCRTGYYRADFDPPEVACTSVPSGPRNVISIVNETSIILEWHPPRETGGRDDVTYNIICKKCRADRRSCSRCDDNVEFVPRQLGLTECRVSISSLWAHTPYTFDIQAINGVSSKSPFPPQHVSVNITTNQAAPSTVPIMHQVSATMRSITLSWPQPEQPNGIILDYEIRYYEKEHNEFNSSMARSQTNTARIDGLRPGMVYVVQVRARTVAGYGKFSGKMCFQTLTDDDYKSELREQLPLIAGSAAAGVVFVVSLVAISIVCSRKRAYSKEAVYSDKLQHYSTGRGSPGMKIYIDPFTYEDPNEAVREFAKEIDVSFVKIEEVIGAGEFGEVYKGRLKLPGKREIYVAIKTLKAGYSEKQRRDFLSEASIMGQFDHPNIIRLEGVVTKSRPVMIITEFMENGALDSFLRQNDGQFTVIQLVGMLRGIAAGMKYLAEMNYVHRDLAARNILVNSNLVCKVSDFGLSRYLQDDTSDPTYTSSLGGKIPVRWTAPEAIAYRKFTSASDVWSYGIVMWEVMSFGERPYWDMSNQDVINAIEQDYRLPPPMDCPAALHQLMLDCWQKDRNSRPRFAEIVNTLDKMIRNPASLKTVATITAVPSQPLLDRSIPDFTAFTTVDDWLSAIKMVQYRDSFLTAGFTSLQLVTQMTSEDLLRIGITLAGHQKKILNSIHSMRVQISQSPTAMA
condition-label: at 1 µM
recorded-metric: residual activity

# input compound: CCCCc1c(-c2ccc(O)cc2)[nH]c2nccnc12 ; wanted: its residual activity
64%

Now give it for COc1ccc2c(c1)c(C1=C(c3c[nH]c4ccccc34)C(=O)NC1=O)cn2CCCN(C)C too.
80%

Now give it for COc1cc2nccc(Oc3ccc(NC(=O)Nc4cc(C)on4)c(Cl)c3)c2cc1OC too.
1%

Now give it for CCCCc1c(-c2ccc(OC)cc2)[nH]c2nccnc12 too.
61%

Now give it for CC(C)(C)n1nc(Cc2cccc3ccccc23)c2c(N)ncnc21 too.
13%

Now give it for Nc1nc(Nc2ccc(S(N)(=O)=O)cc2)nn1C(=O)c1c(F)cccc1F too.
78%

* * *

Please provide measured residual activity for the entries that follow.
assayed-system: Serine/threonine-protein kinase MARK1 (Homo sapiens)
condition-label: at 1 µM
Kindly provide the numeric value in % only, without the unit symbol.

Form field: residual activity recorded for COc1ccc(Cl)cc1NC(=O)Nc1cc(C)nc2ccccc12 with Serine/threonine-protein kinase MARK1 (Homo sapiens) (enter value)
86

Now give it for N#Cc1c(NC(=O)c2cccc3ccccc23)sc2c1CCCC2 too.
100

Now give it for CN([C@@H](Cc1ccc(OS(=O)(=O)c2cccc3cnccc23)cc1)C(=O)N1CCN(c2ccccc2)CC1)S(=O)(=O)c1cccc2cnccc12 too.
99

Now give it for COc1cc2c(cc1OC)-c1n[nH]c(Nc3cccc(F)c3)c1C2 too.
73

Now give it for CC(C)[C@H](CO)Nc1nc(Nc2cc(N)cc(Cl)c2)c2ncn(C(C)C)c2n1 too.
92

Now give it for O=C1NC(=O)C(c2cn(CCCn3ccnc3)c3ccccc23)=C1Nc1ccccc1 too.
77

Now give it for O=C(O)/C=C/c1cc(Br)c(Br)c(Br)c1Br too.
104

Now give it for CC(C)(C)c1nc2c3ccc(F)cc3c3c(=O)[nH]ccc3c2[nH]1 too.
29

Now give it for O=c1cc(N2CCNCC2)oc2c(-c3ccccc3)cccc12 too.
82

Now give it for CCN(CC)CCNC(=O)c1c(C)[nH]c(/C=C2\C(=O)Nc3ccc(Cl)cc32)c1C too.
14

* * *

assayed-system: Ribosomal protein S6 kinase alpha-3 (Homo sapiens) (UniProt P51812)
Sequence (P51812 whole entry): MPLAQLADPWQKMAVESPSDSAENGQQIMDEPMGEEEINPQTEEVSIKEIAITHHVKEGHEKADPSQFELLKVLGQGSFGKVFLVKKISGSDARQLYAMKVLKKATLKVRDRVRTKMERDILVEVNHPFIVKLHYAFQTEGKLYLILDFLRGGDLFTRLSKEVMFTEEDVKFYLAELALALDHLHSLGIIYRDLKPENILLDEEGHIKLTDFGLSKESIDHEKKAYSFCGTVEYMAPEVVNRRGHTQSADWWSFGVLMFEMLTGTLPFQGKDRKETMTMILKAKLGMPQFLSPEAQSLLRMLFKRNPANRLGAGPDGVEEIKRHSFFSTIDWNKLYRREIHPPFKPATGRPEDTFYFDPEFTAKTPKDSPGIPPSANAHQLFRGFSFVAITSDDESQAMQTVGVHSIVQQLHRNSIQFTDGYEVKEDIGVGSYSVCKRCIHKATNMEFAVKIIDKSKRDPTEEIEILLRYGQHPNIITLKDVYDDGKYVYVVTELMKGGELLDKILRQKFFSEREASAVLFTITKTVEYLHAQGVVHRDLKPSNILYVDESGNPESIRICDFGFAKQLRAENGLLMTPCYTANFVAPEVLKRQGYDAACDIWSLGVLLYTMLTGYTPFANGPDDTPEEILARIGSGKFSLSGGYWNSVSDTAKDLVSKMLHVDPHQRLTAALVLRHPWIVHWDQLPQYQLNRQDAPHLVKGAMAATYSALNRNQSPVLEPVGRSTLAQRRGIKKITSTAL
condition-label: at 1 µM
Flag rule - residual activity less than 60% flags Condition met; the remaining entries get Condition not met.

residual activity under 60%? Item: COc1cc2ncnc(Nc3cccc(Cl)c3)c2cc1OC
Condition not met

Now give it for CCN(CC)CCNC(=O)c1c(C)[nH]c(/C=C2\C(=O)Nc3ccc(Cl)cc32)c1C too.
Condition met

Now give it for O=C1NC(=O)C(c2cn(CCCn3ccnc3)c3ccccc23)=C1Nc1ccccc1 too.
Condition met

Now give it for COc1cc2c(cc1OC)-c1n[nH]c(Nc3cccc(F)c3)c1C2 too.
Condition not met

Now give it for NC(=O)Nc1sc(-c2ccc(F)cc2)cc1C(N)=O too.
Condition met

Now give it for O=C(Nc1nc2ccccc2n1CCN1CCOCC1)c1cccc([N+](=O)[O-])c1 too.
Condition not met

Now give it for CCCCc1c(-c2ccc(OC)cc2)[nH]c2nccnc12 too.
Condition met

Now give it for O=C1C(Cl)=C(N2C(=O)CCC2=O)C(=O)c2ccccc21 too.
Condition not met

Now give it for COc1ccc2c(c1)c(C1=C(c3c[nH]c4ccccc34)C(=O)NC1=O)cn2CCCN(C)C too.
Condition met

* * *

assayed-system: Tyrosine-protein kinase SYK (Homo sapiens) (UniProt P43405)
condition-label: at 1 µM
Please provide measured residual activity for the entries that follow.
Kindly provide the numeric value in % only, without the unit symbol.

# input compound: Nc1ncnc2[nH]nc(Nc3ccc(F)cc3)c12 ; wanted: its residual activity
91

Now give it for O=C1NC(=O)c2c1c1c3ccccc3[nH]c1n1cncc21 too.
60

Now give it for Cn1c2ccccc2c2c3c(c4c5ccccc5n(CCC#N)c4c21)CNC3=O too.
3

Now give it for COc1ccc(COc2ccc(Cc3cnc(N)nc3N)cc2OC)cc1 too.
118

Now give it for CCCCc1c(-c2ccc(OC)cc2)[nH]c2nccnc12 too.
37

Now give it for COc1ccc(-c2cnc3c(-c4ccsc4)cnn3c2)cc1 too.
127

Now give it for O=c1c(-c2ccc(F)cc2)c(-c2ccncc2)[nH]n1-c1ccc(Cl)cc1 too.
41

Now give it for COc1ccc2c(c1)c(C1=C(c3c[nH]c4ccccc34)C(=O)NC1=O)cn2CCCN(C)C too.
113

Now give it for CC(C)c1nn(-c2c(Cl)cccc2Cl)c2nc(Cc3ccc(OCCO)cc3)[nH]c(=O)c12 too.
101

Now give it for O=C1Cc2c([nH]c3ccc(Br)cc23)-c2ccccc2N1 too.
72

Now give it for O=C1NC(=O)C(c2c[nH]c3ccccc23)=C1c1c[nH]c2ccccc12 too.
120

The measured values listed here are drawn from ChEMBL document CHEMBL2218924.
